# Measured On: Human TREM2 (Homo sapiens)
# Construct: expressed in transfected cells
# Measurement Notes: Human TREM2 activity: cellular phosphorylation of Syk (AlphaLISA SureFire Ultra p-SYK) in HEK293/DAP12+TREM2 stable cell line
# Type: cell-based
# Particulars: HEK293; maximal response relative to reference agonist example 1B (remaining examples); read-out: Emax
Would you kindly list Emax for each of these molecules?

Lab note: measured Emax of Cc1cc([C@@H]2CN(c3cc4c(=O)n(C)c(C)nc4c(-c4ccc(C(F)F)nc4)n3)CC(C)(C)O2)ccn1 (single isomer, unassigned) [Example 180A] was < 75%

Form: molecule = Cc1cc([C@H]2CN(c3nc(-c4ccc(C(F)(F)F)nc4)c4nc(C)n(C)c(=O)c4n3)CCO2)ccn1 (single isomer, unassigned) [Example 22B] ; Emax = 75 to 110%

# Emax of Cc1nc2c(-c3ccc(Cl)cc3F)nc(N3CCO[C@H](c4cnn(C)c4)C3)cc2c(=O)n1C (single isomer, unassigned) [Example 125B] = < 75%

###

# Measured On: Human TREM2 (Homo sapiens)
# Construct: expressed in transfected cells
# Measurement Notes: Human TREM2 activity: cellular phosphorylation of Syk (AlphaLISA SureFire Ultra p-SYK) in HEK293/DAP12+TREM2 stable cell line
# Type: cell-based
# Particulars: HEK293; maximal response relative to reference agonist example 1B (remaining examples); read-out: Emax
Kindly state Emax for each of the entries shown.

The compound listed as Cc1cc([C@H]2CN(c3nc(-c4cc(F)c(F)cc4F)c4nc(C(F)(F)F)n(C)c(=O)c4n3)CCO2)ccn1 (single isomer, unassigned) [Example 155B] shows Emax equal to 75 to 110%

Kindly note the recorded Emax for Cc1nc2c(-c3ccc(F)cc3F)nc(N3C[C@@H](c4cnn(C)c4)OC(F)(F)C3)cc2c(=O)n1C (single isomer, unassigned) [Example 166A] , which is 75 to 110%

Please fill in: Emax reported for Cc1nc2c(-c3ccc(F)c(F)c3F)nc(N3CCOC(c4cnn(C)c4)C3)nc2c(=O)n1C (stereo not drawn) [Example 6] = 75 to 110%

###

Provide the recorded Emax for the entries that follow.
# Measured On: Human TREM2 (Homo sapiens, UniProt Q9NZC2)
# Construct: expressed in transfected cells
# Sequence (Q9NZC2 19-230): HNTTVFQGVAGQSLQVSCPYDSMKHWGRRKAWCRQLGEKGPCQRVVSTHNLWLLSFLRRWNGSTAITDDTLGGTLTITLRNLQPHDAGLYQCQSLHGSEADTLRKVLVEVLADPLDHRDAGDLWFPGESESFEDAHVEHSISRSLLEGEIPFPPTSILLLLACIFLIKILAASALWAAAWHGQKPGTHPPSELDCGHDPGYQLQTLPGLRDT
# Sequence (O43914 22-113 partner): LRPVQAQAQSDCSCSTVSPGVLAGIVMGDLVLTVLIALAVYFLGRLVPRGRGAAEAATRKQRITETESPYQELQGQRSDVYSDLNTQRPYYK
# Measurement Notes: Human TREM2 activity: cellular phosphorylation of Syk (AlphaLISA SureFire Ultra p-SYK) in HEK293/DAP12+TREM2 stable cell line
# Format: cell-based
# Particulars: HEK293; maximal response relative to reference agonist example 1B (remaining examples); read-out: Emax

Cc1nc2c(-c3ccc(Cl)cc3F)nc(N3C[C@@H](c4cnn(C5CC5)c4)OC(C)(C)C3)nc2c(=O)n1C (single isomer, unassigned) [Example 110A] has a reported Emax of 75 to 110%

// field: Emax; key: Cc1nc2c(-c3ccc(C(F)(F)F)cc3F)nc(N3C[C@H](c4cnn(C)c4)OC(C)(C)C3)cc2c(=O)n1C (single isomer, unassigned) [Example 134B] ; value = < 75%

Given item Cc1cc([C@H]2CN(c3nc(-c4ccc(C(F)(F)F)cc4F)c4nc(C)n(C)c(=O)c4n3)CCO2)ccn1 (single isomer, unassigned) [Example 21B] , the value recorded as its Emax is 75 to 110%

According to the records, this compound Cc1nc2c(-c3ccc(C(F)(F)F)cc3C#N)nc(N3C[C@@H](C)O[C@@H](c4cnn(C5CC5)c4)C3)cc2c(=O)n1C (single isomer, unassigned) [Example 202B] displays Emax of < 75%

Lookup result for Cc1nc2c(-c3ccc(Cl)cc3F)nc(N3CCOC(c4cnn(C)c4)C3)nc2c(=O)[nH]1 (stereo not drawn) ; measured Emax: < 75%

Looking up Cc1cc([C@@H]2CN(c3nc(-c4ccc(C(F)(F)F)nc4)c4nc(C)n(C)c(=O)c4n3)CC(C)(C)O2)ccn1 (single isomer, unassigned) [Example 164A] , I see its Emax listed as 75 to 110%

###

Please respond with reported Emax for every item in the list.
# Measured On: Human TREM2 (Homo sapiens, UniProt Q9NZC2)
# Construct: expressed in transfected cells
# Measurement Notes: Human TREM2 activity: cellular phosphorylation of Syk (AlphaLISA SureFire Ultra p-SYK) in HEK293/DAP12+TREM2 stable cell line
# Assay type: cell-based
# Particulars: HEK293; maximal response relative to reference agonist example 1B (remaining examples); read-out: Emax

The molecule listed as Cc1cc([C@@H]2CN(c3nc(-c4ccc(C(F)(F)F)cc4F)c4nc(C)n(C)c(=O)c4n3)CCO2)ccn1 (single isomer, unassigned) [Example 21A] shows Emax equal to 75 to 110%

Reported Emax for Cc1nc2c(-c3ccc(C(F)(F)F)nc3)nc([C@H]3CCO[C@@H](c4cnn(C)c4)C3)nc2c(=O)n1C (single isomer, unassigned) [Example 88B] was < 75%

Consider Cc1cc([C@H]2CN(c3nc(-c4cc(F)c(F)cc4F)c4nc(C)n(C)c(=O)c4n3)CCO2)ccn1 (single isomer, unassigned) [Example 123B] . Its measured Emax is 75 to 110%

According to the records, this molecule Cc1nc2c(-c3ccc(Cl)cc3F)nc(N3C[C@@H](c4cnn(C)c4)OC4(CC4)C3)nc2c(=O)n1C (single isomer, unassigned) [Example 108A] displays Emax of 75 to 110%

Value of Emax reported for the molecule "Cc1cc([C@H]2C[C@@H](c3cc4c(=O)n(C)c(C)nc4c(-c4ccc(F)cc4F)n3)C[C@@H](C)O2)ccn1" is 75 to 110%

The molecule identified as Cc1nc2c(-c3ccc(Cl)cc3F)nc(N3CCO[C@H](c4cnn(C5CC5)c4)C3)nc2c(=O)n1C (single isomer, unassigned) [Example 26A] registered its Emax at 75 to 110%

###

# Measured On: Human TREM2 (Homo sapiens, UniProt Q9NZC2)
# Construct: expressed in transfected cells
# Measurement Notes: Human TREM2 activity: cellular phosphorylation of Syk (AlphaLISA SureFire Ultra p-SYK) in HEK293/DAP12+TREM2 stable cell line
# Type: cell-based
# Particulars: phospho-Syk AlphaLISA signal, HEK293/DAP12+TREM2 cells; concentration giving 50% of maximal response; read-out: EC50
Please go through the items and note down their EC50.

EC50 measured on Cc1nc2c(-c3ccc(C(F)(F)F)cc3C#N)nc(N3C[C@@H](C)O[C@@H](c4cnn(C5CC5)c4)C3)cc2c(=O)n1C (single isomer, unassigned) [Example 202B] = > 1 µM

COC1CN(C2CCCN(c3nc(-c4ccc(Cl)cc4F)c4nc(C)n(C)c(=O)c4n3)C2)C1 (stereo not drawn) [Example 79] has a reported EC50 of > 1 µM

The reported value for Cc1cc([C@H]2CN(c3nc(-c4cc(F)c(F)cc4F)c4nc(C)n(C)c(=O)c4n3)CCO2)ccn1 (single isomer, unassigned) [Example 123B] in terms of EC50 is 0.01 to 0.1 µM

Recorded result, Cc1nc2c(-c3ccc(C(F)(F)F)cc3F)nc(N3CCO[C@@H](c4cnn(C5CC5)c4)C3)cc2c(=O)n1C (single isomer, unassigned) [Example 132B] , EC50: 0.1 to 1 µM

EC50 measured on Cc1cc([C@H]2CN(c3nc(-c4ccc(Cl)cc4F)c4nc(C)n(C)c(=O)c4n3)C[C@@H](C)O2)ccn1 (single isomer, unassigned) [Example 176B] = 0.001 to 0.01 µM

So, Cc1nc2c(-c3cc(F)c(F)cc3F)nc(N3CCOC(c4cnn(C)c4)C3)nc2c(=O)n1C (stereo not drawn) [Example 7] ? Its EC50 was 0.1 to 1 µM

###

# Measured On: Human TREM2 (Homo sapiens, UniProt Q9NZC2)
# Construct: expressed in transfected cells
# Measurement Notes: Human TREM2 activity: cellular phosphorylation of Syk (AlphaLISA SureFire Ultra p-SYK) in HEK293/DAP12+TREM2 stable cell line
# Format: cell-based
# Particulars: HEK293; maximal response relative to reference agonist example 1B (remaining examples); read-out: Emax
# Text: Human TREM2, in vitro Measurement of Triggering Receptor Expressed on Myeloid Cells 2 activity using cellular phosphorylation of Spleen Tyrosine Kinase (“Syk”) Assay […] TREM2 signaling through DAP12 was monitored in the HEK293/DAP12+TREM2 stable cell line by measuring the phosphorylation levels of the Syk kinase using the commercially available AlphaLISA SureFire Ultra p-SYK (Tyr525/526) Assay Kit (PerkinElmer #ALSU-PSYK), based on the Perkin Elmer AlphaScreen/AlphaLISA technology. […]
Recorded Endpoint: Emax

Emax reading for Cc1n[nH]c(C2CN(c3nc(-c4ccc(Cl)cc4F)c4nc(C)n(C)c(=O)c4n3)CCO2)n1 (stereo not shown) : < 75%

Note to self: Emax recorded for Cc1nc2c(-c3ccc(Cl)cc3F)nc(N3CCOC(CN(C)C)C3)nc2c(=O)n1C (stereo not shown) was 75 to 110%

Emax recorded for this compound, "Cc1nc2c(-c3ccc(Cl)cc3F)nc(N3CC[C@H](Oc4cnn(C)c4)C3)nc2c(=O)n1C" , is < 75%

get_value(item= Cc1nc2c(-c3ccc(F)cc3F)nc(N3C[C@@H](C)O[C@@H](c4cnn(C5CC5)c4)C3)nc2c(=O)n1C (single isomer, unassigned) [Example 177B] , readout=Emax) returns 75 to 110%

Query Cc1nc2c(-c3ccc(Cl)cc3F)cc(N3C[C@H](c4cnn(C)c4)OC(C)(C)C3)cc2c(=O)n1C (single isomer, unassigned) [Example 117B] yields Emax of < 75%

For Cc1nc2c(-c3ccc(Cl)cc3F)nc([C@@]34CCO[C@@H](c5cnn(C6CC6)c5)[C@@H]3C4)nc2c(=O)n1C (single isomer, unassigned) [Example 116B] the compound record lists Emax as < 75%

For record COCCn1c(C)nc2c(-c3ccc(Cl)cc3F)nc(N3CCOC(c4cnn(C)c4)C3)nc2c1=O (stereo not shown) the listed Emax is < 75%
